- EXPERIMENTAL_TARGET: Probable G-protein coupled receptor 139 (Rattus norvegicus)
- Sequence (P0C0W8 whole entry): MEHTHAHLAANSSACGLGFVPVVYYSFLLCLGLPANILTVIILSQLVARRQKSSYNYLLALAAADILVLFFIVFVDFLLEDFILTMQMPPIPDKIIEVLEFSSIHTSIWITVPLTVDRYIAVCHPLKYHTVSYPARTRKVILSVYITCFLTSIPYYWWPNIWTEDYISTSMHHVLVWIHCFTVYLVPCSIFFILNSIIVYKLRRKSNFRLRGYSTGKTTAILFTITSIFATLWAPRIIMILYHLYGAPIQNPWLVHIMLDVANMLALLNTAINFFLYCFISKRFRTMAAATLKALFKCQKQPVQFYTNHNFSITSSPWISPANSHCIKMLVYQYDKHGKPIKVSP
- ASSAY_REMARKS: Agonist activity at rat GPR139 expressed in CHO-K1 cells assessed as increase in calcium flux by calcium 5 dye based FLIPR assay
- Format: cell-based
- MEASUREMENT_CONTEXT: cho-k1

>  <SAMPLE_SMILES>
C[C@H](NC(=O)Cn1nc2cc(N3CCC(O)CC3)ccn2c1=O)c1ccc(OC(F)(F)F)cc1

>  <EXPERIMENTAL_TARGET>
Probable G-protein coupled receptor 139 (Rattus norvegicus)

>  <EC50, nM>
1

$$$$
>  <SAMPLE_SMILES>
Cc1cc([C@H](C)NC(=O)Cn2nc3cccnn3c2=O)ccc1Cl

>  <EXPERIMENTAL_TARGET>
Probable G-protein coupled receptor 139 (Rattus norvegicus)

>  <EC50, nM>
1

$$$$
>  <SAMPLE_SMILES>
C[C@H](NC(=O)Cn1nc2cccnn2c1=O)c1ccc(Cl)cc1

>  <EXPERIMENTAL_TARGET>
Probable G-protein coupled receptor 139 (Rattus norvegicus)

>  <EC50, nM>
10

$$$$
>  <SAMPLE_SMILES>
Cc1ccc([C@H](C)NC(=O)Cn2nc3cccnn3c2=O)cc1F

>  <EXPERIMENTAL_TARGET>
Probable G-protein coupled receptor 139 (Rattus norvegicus)

>  <EC50, nM>
1

$$$$
>  <SAMPLE_SMILES>
Cc1ccnc2nn(CC(=O)N[C@@H](C)c3ccc(Cl)c(F)c3)c(=O)n12

>  <EXPERIMENTAL_TARGET>
Probable G-protein coupled receptor 139 (Rattus norvegicus)

>  <EC50, nM>
10

$$$$
>  <SAMPLE_SMILES>
Cc1ccc([C@H](C)NC(=O)Cn2nc3cccc(F)n3c2=O)cc1

>  <EXPERIMENTAL_TARGET>
Probable G-protein coupled receptor 139 (Rattus norvegicus)

>  <EC50, nM>
1

$$$$
>  <SAMPLE_SMILES>
COc1ccc2nn(CC(=O)N[C@@H](C)c3ccc(Cl)c(F)c3)c(=O)n2n1

>  <EXPERIMENTAL_TARGET>
Probable G-protein coupled receptor 139 (Rattus norvegicus)

>  <EC50, nM>
1

$$$$
>  <SAMPLE_SMILES>
C[C@H](NC(=O)Cn1nc2c(N3CCN(C)CC3)nccn2c1=O)c1ccc(Cl)c(F)c1

>  <EXPERIMENTAL_TARGET>
Probable G-protein coupled receptor 139 (Rattus norvegicus)

>  <EC50, nM>
1

$$$$
>  <SAMPLE_SMILES>
Cc1cc(Cl)ccc1[C@H](C)NC(=O)Cn1nc2ccccn2c1=O

>  <EXPERIMENTAL_TARGET>
Probable G-protein coupled receptor 139 (Rattus norvegicus)

>  <EC50, nM>
1

$$$$
>  <SAMPLE_SMILES>
C[C@H](NC(=O)Cn1nc2cc(C#N)ccn2c1=O)c1ccc(Cl)c(F)c1

>  <EXPERIMENTAL_TARGET>
Probable G-protein coupled receptor 139 (Rattus norvegicus)

>  <EC50, nM>
1

$$$$

====

- EXPERIMENTAL_TARGET: Probable G-protein coupled receptor 139 (Homo sapiens)
- Sequence (Q6DWJ6 whole entry): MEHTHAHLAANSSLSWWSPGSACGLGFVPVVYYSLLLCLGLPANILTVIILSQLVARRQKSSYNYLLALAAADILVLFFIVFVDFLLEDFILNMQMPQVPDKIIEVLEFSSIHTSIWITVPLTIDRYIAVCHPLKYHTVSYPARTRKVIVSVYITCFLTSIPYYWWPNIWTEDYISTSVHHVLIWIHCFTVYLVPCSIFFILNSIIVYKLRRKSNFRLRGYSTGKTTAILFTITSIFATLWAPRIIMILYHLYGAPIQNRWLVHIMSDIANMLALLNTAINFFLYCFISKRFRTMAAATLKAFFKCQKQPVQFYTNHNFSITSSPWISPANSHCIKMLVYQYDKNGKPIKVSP
- ASSAY_REMARKS: Agonist activity at human GPR139 expressed in CHO-K1 cells assessed as induction of beta-arrestin 2 recruitment incubated for 90 mins by PathHunter assay
- Type: cell-based
- MEASUREMENT_CONTEXT: cho-k1

>  <COMPOUND>
C[C@H](NC(=O)Cn1nc2c(N3CCOCC3)cccn2c1=O)c1ccc(Cl)c(F)c1

>  <EC50>
10 nM

$$$$
>  <COMPOUND>
Cc1ccn2c(=O)n(CC(=O)N[C@@H](C)c3ccc(OC(F)(F)F)cc3)nc2c1

>  <EC50>
1 nM

$$$$
>  <COMPOUND>
Cc1cnc2nn(CC(=O)N[C@@H](C)c3ccc(OC(F)(F)F)c(F)c3)c(=O)n2c1

>  <EC50>
1 nM

$$$$
>  <COMPOUND>
C[C@H](NC(=O)Cn1nc2c(C3CC3)ccnn2c1=O)c1ccc(Cl)c(F)c1

>  <EC50>
1 nM

$$$$
>  <COMPOUND>
C[C@H](NC(=O)Cn1nc2c(NC3COC3)ccnn2c1=O)c1ccc(Cl)c(F)c1

>  <EC50>
10 nM

$$$$
>  <COMPOUND>
Cc1ncc([C@H](C)NC(=O)Cn2nc3cc(Cl)ccn3c2=O)cc1F

>  <EC50>
10 nM

$$$$
>  <COMPOUND>
Cc1ccc2nn(CC(=O)N[C@@H](C)c3ccc(OC(F)(F)F)cc3)c(=O)n2c1

>  <EC50>
1 nM

$$$$
>  <COMPOUND>
Cc1ccc([C@H](C)NC(=O)Cn2nc3ccc(F)cn3c2=O)cc1F

>  <EC50>
1 nM

$$$$
>  <COMPOUND>
Cc1ccnc2nn(CC(=O)N[C@@H](C)c3ccc(Cl)c(F)c3)c(=O)n12

>  <EC50>
1 nM

$$$$
>  <COMPOUND>
C[C@H](NC(=O)Cn1nc2cc(Cl)cnn2c1=O)c1ccc(Cl)c(F)c1

>  <EC50>
1 nM

$$$$
>  <COMPOUND>
CC(C(=O)N[C@@H](C)c1ccc(Cl)c(F)c1)n1nc2ncccn2c1=O (stereo in doubt; form 2)

>  <EC50>
1 nM

$$$$

====

// Emax lookup, one value per entry
- EXPERIMENTAL_TARGET: UniProtKB P0C0W8
- Sequence (whole entry): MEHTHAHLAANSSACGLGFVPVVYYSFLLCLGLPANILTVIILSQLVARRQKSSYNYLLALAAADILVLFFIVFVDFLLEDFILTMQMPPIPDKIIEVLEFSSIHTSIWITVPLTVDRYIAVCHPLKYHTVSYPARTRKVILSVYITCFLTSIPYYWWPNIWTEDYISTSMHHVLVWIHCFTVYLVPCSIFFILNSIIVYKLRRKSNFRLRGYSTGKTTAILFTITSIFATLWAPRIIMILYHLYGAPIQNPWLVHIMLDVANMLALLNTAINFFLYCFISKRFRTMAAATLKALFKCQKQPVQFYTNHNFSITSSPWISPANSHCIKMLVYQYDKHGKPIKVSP
- ASSAY_REMARKS: Agonist activity at rat GPR139 expressed in CHO-K1 cells assessed as increase in calcium flux by calcium 5 dye based FLIPR assay relative to JNJ63533054
- Type: cell-based
- MEASUREMENT_CONTEXT: filed as agonist

>  <COMPOUND>
Cc1cnc2nn(CC(=O)N[C@@H](C)c3ccc(Cl)c(F)c3)c(=O)n2c1

>  <Emax>
> 80%

$$$$
>  <COMPOUND>
C[C@H](NC(=O)Cn1nc2cccnn2c1=O)c1ccc(C2CC2)cc1

>  <Emax>
50%

$$$$
>  <COMPOUND>
Cc1ccn2c(=O)n(CC(=O)N[C@@H](C)c3ccc(OC(F)(F)F)cc3)nc2c1

>  <Emax>
50%

$$$$
>  <COMPOUND>
Cc1cc([C@H](C)NC(=O)Cn2nc3cccnn3c2=O)ccc1Cl

>  <Emax>
> 80%

$$$$
>  <COMPOUND>
COc1cccc2nn(CC(=O)N[C@@H](C)c3ccc(OC(F)(F)F)cc3)c(=O)n12

>  <Emax>
50%

$$$$
>  <COMPOUND>
Cc1ccc([C@H](C)NC(=O)Cn2nc3ncccn3c2=O)cc1F

>  <Emax>
50%

$$$$
>  <COMPOUND>
C[C@H](NC(=O)Cn1nc2cc(Cl)cnn2c1=O)c1ccc(Cl)c(F)c1

>  <Emax>
> 80%

$$$$
>  <COMPOUND>
Cc1ccc([C@H](C)NC(=O)Cn2nc3c(C)ccnn3c2=O)cc1F

>  <Emax>
> 80%

$$$$
>  <COMPOUND>
CNc1ccnn2c(=O)n(CC(=O)N[C@@H](C)c3ccc(OC(F)(F)F)cc3)nc12

>  <Emax>
50%

$$$$
>  <COMPOUND>
C[C@H](NC(=O)Cn1nc2c(NC3COC3)ccnn2c1=O)c1ccc(OC(F)(F)F)cc1

>  <Emax>
50%

$$$$
>  <COMPOUND>
C[C@H](NC(=O)Cn1nc2cc(N3CCCCC3)ccn2c1=O)c1ccc(OC(F)(F)F)cc1

>  <Emax>
> 80%

$$$$
>  <COMPOUND>
Cc1ccc([C@H](C)NC(=O)Cn2nc3ccc(F)cn3c2=O)cc1F

>  <Emax>
50%

$$$$
>  <COMPOUND>
C[C@H](NC(=O)Cn1nc2c(I)ccnn2c1=O)c1ccc(Cl)c(F)c1

>  <Emax>
> 80%

$$$$
>  <COMPOUND>
Cc1ccc([C@H](C)NC(=O)Cn2nc3cnc(C)cn3c2=O)cc1

>  <Emax>
50%

$$$$
>  <COMPOUND>
C[C@H](NC(=O)Cn1nc2cccnn2c1=O)c1ccc(Cl)cc1

>  <Emax>
50%

$$$$
>  <COMPOUND>
O=C(Cn1nc2ccc(F)cn2c1=O)NC1(c2cccc(Cl)c2)CC1

>  <Emax>
50%

$$$$
>  <COMPOUND>
C[C@H](NC(=O)Cn1nc2cc(N3CCN(C)CC3)ccn2c1=O)c1ccc(OC(F)(F)F)cc1

>  <Emax>
50%

$$$$
>  <COMPOUND>
C[C@H](NC(=O)Cn1nc2cc(I)ccn2c1=O)c1ccc(Cl)c(F)c1

>  <Emax>
> 80%

$$$$
>  <COMPOUND>
Cc1ccc([C@H](C)NC(=O)Cn2nc3cccnn3c2=O)cc1F

>  <Emax>
50%

$$$$
>  <COMPOUND>
C[C@H](NC(=O)Cn1nc2cc(Cl)ccn2c1=O)c1ccc(OC(F)(F)F)cc1

>  <Emax>
50%

$$$$
>  <COMPOUND>
Cc1ccc([C@H](C)NC(=O)Cn2nc3ccc(Br)cn3c2=O)cc1

>  <Emax>
50%

$$$$
>  <COMPOUND>
C[C@H](NC(=O)Cn1nc2ncc(F)cn2c1=O)c1ccc(Cl)c(F)c1

>  <Emax>
> 80%

$$$$
>  <COMPOUND>
C[C@H](NC(=O)Cn1nc2c(N3CCCCC3)nccn2c1=O)c1ccc(Cl)c(F)c1

>  <Emax>
> 80%

$$$$
>  <COMPOUND>
C[C@H](NC(=O)Cn1nc2ccccn2c1=O)c1ccc(Cl)c(Cl)c1

>  <Emax>
> 80%

$$$$
>  <COMPOUND>
C[C@H](NC(=O)Cn1nc2ncc(Cl)cn2c1=O)c1ccc(Cl)c(F)c1

>  <Emax>
> 80%

$$$$
>  <COMPOUND>
CNc1cccn2c(=O)n(CC(=O)N[C@@H](C)c3ccc(C)cc3)nc12

>  <Emax>
> 80%

$$$$
>  <COMPOUND>
C[C@H](NC(=O)Cn1nc2c(OC3CN(C)C3)nccn2c1=O)c1ccc(Cl)c(F)c1

>  <Emax>
> 80%

$$$$
>  <COMPOUND>
Cc1ccc([C@H](C)NC(=O)C(C)n2nc3ccccn3c2=O)cc1 (stereo in doubt; form 1)

>  <Emax>
50%

$$$$
